Source of measurements: patent US20130217664A1

biological target: human JAK1 (Homo sapiens, UniProt P23458); construct: catalytic domain, amino acids 866-1154; catalog number PV4774; experiment: JAK1 inhibition assay (polyGT substrate / Ulight-JAK1 peptide); details: recombinant human JAK1 catalytic domain; polyGT or Ulight-JAK1 peptide assay
Sequence (P23458 866-1154): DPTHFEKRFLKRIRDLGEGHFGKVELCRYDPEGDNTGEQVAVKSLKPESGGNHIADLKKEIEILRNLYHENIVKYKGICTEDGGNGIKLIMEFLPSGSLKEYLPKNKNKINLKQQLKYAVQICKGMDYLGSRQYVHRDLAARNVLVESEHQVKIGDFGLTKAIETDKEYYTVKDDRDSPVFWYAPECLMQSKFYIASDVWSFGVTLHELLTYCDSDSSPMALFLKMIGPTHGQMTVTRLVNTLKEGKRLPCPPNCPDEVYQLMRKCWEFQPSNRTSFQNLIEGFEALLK
property_measured: IC50

Find the measured IC50 of "COc1ccc(N(C)c2cc3c(cn2)ncn3C)c(C)c1" and report it. 101 to 500 nM

Find the measured IC50 of "CCc1cc(-c2cnc(N(C)C)nc2)ccc1N(C)c1cc2c(cn1)ncn2C" and report it. 0.01 to 100 nM

Find the measured IC50 of "CN(c1cc2c(cn1)ncn2C)c1c(F)cc(C2CN(C(=O)OC(C)(C)C)C2)cc1F" and report it. > 1000 nM

Find the measured IC50 of "CCc1ccc(C(=O)NC)cc1N(C)c1cc2c(cn1)ncn2C" and report it. 101 to 500 nM

Find the measured IC50 of "CCc1cc(-c2cncc(C#N)c2)ccc1N(C)c1cc2c(cn1)ncn2C" and report it. 0.01 to 100 nM

Find the measured IC50 of "COc1ccc(Cc2cc3c(cn2)ncn3C)cc1" and report it. > 1000 nM

Find the measured IC50 of "CCc1cc(CN(CC#N)S(C)(=O)=O)cc(F)c1N(C)c1cc2c(cn1)ncn2C" and report it. 0.01 to 100 nM

====

target: human JAK2 (Homo sapiens, UniProt O60674); construct: catalytic domain (amino acids 808-1132; catalog number PV4210); GST; experiment: JAK2 inhibition assay (polyGT substrate / Ulight-JAK1 peptide); conditions: recombinant human JAK2 catalytic domain; polyGT or Ulight-JAK1 peptide assay
Sequence (O60674 808-1132): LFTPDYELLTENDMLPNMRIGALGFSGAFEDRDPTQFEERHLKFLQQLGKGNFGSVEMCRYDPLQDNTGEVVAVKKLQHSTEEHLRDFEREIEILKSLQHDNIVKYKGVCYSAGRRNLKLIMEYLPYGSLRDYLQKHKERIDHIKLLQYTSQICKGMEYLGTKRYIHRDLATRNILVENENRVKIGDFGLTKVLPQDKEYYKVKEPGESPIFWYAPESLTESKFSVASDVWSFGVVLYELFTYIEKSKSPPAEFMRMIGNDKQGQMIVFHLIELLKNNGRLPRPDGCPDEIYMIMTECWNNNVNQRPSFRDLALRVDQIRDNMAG
property_measured: IC50

Find the measured IC50 of "CCc1cc(CNS(=O)(=O)N2CCC(F)(F)C2)ccc1N(C)c1cc2c(cn1)ncn2C" and report it. 0.01 to 100 nM

Find the measured IC50 of "CCc1cc(-c2ccsc2)ccc1N(C)c1cc2c(cn1)ncn2C" and report it. 101 to 500 nM

Find the measured IC50 of "CN(c1ccc(/C=C/C#N)cc1)c1cc2c(cn1)ncn2C" and report it. 501 to 1000 nM

Find the measured IC50 of "CCc1ccccc1N(CC(F)F)c1cc2c(cn1)ncn2C" and report it. 101 to 500 nM

====

Reported pIC50 by item:
biological target: human JAK3 (Homo sapiens, UniProt P52333); construct: catalytic domain (amino acids 781-1124; catalog number PV3855); assay: JAK3 inhibition assay; conditions: recombinant human JAK3 catalytic domain; polyGT substrate
Sequence (P52333 781-1124): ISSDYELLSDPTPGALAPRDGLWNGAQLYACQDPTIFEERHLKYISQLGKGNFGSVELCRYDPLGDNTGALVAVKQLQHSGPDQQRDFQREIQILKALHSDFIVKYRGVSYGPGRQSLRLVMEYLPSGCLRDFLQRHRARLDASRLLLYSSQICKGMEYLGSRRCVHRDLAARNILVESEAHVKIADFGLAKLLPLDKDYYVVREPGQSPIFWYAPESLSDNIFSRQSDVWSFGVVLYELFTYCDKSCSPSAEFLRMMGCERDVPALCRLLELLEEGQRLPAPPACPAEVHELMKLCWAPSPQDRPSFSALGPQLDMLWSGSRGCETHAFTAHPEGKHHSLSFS
pIC50: −log10 of the molar value.

Known results for compounds:
[
  {
    "compound": "CN(c1cc2c(cn1)ncn2C)c1ccc(-c2cnn(C)c2)cc1OC(F)F",
    "target": "human JAK3 (Homo sapiens, UniProt P52333)",
    "observed_measurement": "6.30 to 7.00"
  },
  {
    "compound": "CN(c1cc2c(cn1)ncn2C)c1ccc(C2CN(CC(F)(F)F)C2)cc1OC(F)F",
    "target": "human JAK3 (Homo sapiens, UniProt P52333)",
    "observed_measurement": "6.30 to 7.00"
  },
  {
    "compound": "COCN(Cc1ccc(N(C)c2cc3c(cn2)ncn3C)c(F)c1)S(C)(=O)=O",
    "target": "human JAK3 (Homo sapiens, UniProt P52333)",
    "observed_measurement": "< 6.00"
  },
  {
    "compound": "CCc1cc(CN2CC3(COC3)C2)ccc1N(C)c1cc2c(cn1)ncn2C",
    "target": "human JAK3 (Homo sapiens, UniProt P52333)",
    "observed_measurement": "< 6.00"
  },
  {
    "compound": "CCc1cc(C2CN(S(=O)(=O)CC#N)C2)ccc1N(C)c1cc2c(cn1)ncn2C",
    "target": "human JAK3 (Homo sapiens, UniProt P52333)",
    "observed_measurement": "7.00 to 11.00"
  },
  {
    "compound": "CCc1cc(C(C#N)N2CC(C)(C)C2)ccc1N(C)c1cc2c(cn1)ncn2C (centres unmarked)",
    "target": "human JAK3 (Homo sapiens, UniProt P52333)",
    "observed_measurement": "6.00 to 6.30"
  }
]

Find the measured pIC50 of CCc1cc(C2=CCN(C(=O)C(C)NC(=O)OC(C)(C)C)CC2)ccc1N(C)c1cc2c(cn1)ncn2C (centres unmarked) and report it. 7.00 to 11.00

Find the measured pIC50 of "CCc1cc(C2CN(CCC(F)(F)F)C2)ncc1N(C)c1cc2c(cn1)ncn2C" and report it. < 6.00
